Target Of Assay: TNF-alpha (Homo sapiens, UniProt P01375 P01375:77-233)
Sequence (P01375 77-233, one chain of several): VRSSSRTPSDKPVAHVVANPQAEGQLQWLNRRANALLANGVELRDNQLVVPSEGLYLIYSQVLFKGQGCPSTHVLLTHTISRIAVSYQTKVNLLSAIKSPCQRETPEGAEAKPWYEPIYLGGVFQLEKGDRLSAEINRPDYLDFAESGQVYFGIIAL
Assay Comment: filter; orphan
Test Context: tags: Genzyme or R&D Systems; chain copies: 3 inferred
Property Measured: Kd (nM)
One number for each entry, in nM.

Reported Kd of TNF 18C (ssRNA) RNA: GGGAGCUCAGAAUAAACGCUCAAUGUCGAGUGCGAUGGAGGAGUAGGGAUGCAUUCGACAUGAGGCCCGGAUCCGGC : 460
